tested on: LOC_OS04G41100-cb001; assay: thermal shift delta Tm vs DMSO control; higher = stronger stabilization (binding); conditions: 12.5 µM; protein concentration 2 µM;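 further: purified Escherichia coli-expressed rice kinase domain construct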
Sequence (as listed by the source): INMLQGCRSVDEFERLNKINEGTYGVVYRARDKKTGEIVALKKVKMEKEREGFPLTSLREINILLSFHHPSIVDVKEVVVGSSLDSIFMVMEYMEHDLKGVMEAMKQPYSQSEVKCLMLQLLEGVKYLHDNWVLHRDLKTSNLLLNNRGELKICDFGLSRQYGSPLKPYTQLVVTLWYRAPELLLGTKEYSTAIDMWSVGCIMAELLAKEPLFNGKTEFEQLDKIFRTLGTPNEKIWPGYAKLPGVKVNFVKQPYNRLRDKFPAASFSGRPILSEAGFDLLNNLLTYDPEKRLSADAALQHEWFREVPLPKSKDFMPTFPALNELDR
thermal shift delta Tm below 0.6 °C gives not satisfied; thermal shift delta Tm at or above it gives satisfied.

Below, 3 molecules whose answers are already recorded.
CCn1c(=O)c(-c2ccc(Cl)cc2Cl)cc2cnc(Nc3ccc(N4CCNCC4)c(F)c3)nc21	satisfied
Cc1ccc(C(=O)Nc2ccc(Oc3cc4cnn(C)c4cc3-c3cn[nH]c3)c(F)c2)c(=O)n1-c1ccc(F)cc1	satisfied
CCc1cncnc1N1CCN(Cc2nc3ccc(C(F)(F)F)cc3[nH]2)CC1	not satisfied

Consider the additional molecule presented here.
Say whether CC[C@@H]1C(=O)N(C)c2cnc(Nc3ccc(C(=O)N[C@H]4CC[C@H](N5CCN(CC6CC6)CC5)CC4)cc3OC)nc2N1C(C)C shows thermal shift delta Tm of 0.6 °C or more. not satisfied

* * *

Measured thermal shift delta Tm values are reported for all entries that follow.
test system: LOC_OS07G06570-cb004; assay: thermal shift delta Tm vs DMSO control; higher = stronger stabilization (binding); conditions: 12.5 µM; protein concentration 2 µM
Answer format: numeric, °C implied, no suffix.

Answered examples (8):
CCc1nc(-c2cccc(C)c2)c(-c2ccnc(NC(=O)c3ccccc3)c2)s1	1.16
O=c1[nH]nc(Sc2ncc([N+](=O)[O-])s2)n1-c1ccc2c(c1)OCCO2	3.84
O=C(Nc1nc2cccc(-c3ccc(CN4CCS(=O)(=O)CC4)cc3)n2n1)C1CC1 [Filgotinib (GLPG0634)]	0.9
Cc1cc2c(F)c(Oc3ncnn4cc(OC[C@@H](C)O)c(C)c34)ccc2[nH]1	0.51
Cc1ncc(CO)c(CO)c1O [Pyridoxine]	1.06
Nc1nccc(Oc2ccc3c(C(=O)Nc4cccc(C(F)(F)F)c4)cccc3c2)n1	1.61
COc1ccc(COc2ccc(Cc3cnc(N)nc3N)cc2OC)cc1	0.82
COc1cc(CCc2cc(NC(=O)c3ccc(N4CC(C)NC(C)C4)cc3)n[nH]2)cc(OC)c1 (stereo not drawn)	0

# thermal shift delta Tm (molecule: C=CC(=O)Nc1cccc(Nc2nc(Nc3ccc(N4CCN(C(C)=O)CC4)cc3OC)ncc2C(F)(F)F)c1 [Rociletinib (CO-1686, AVL-301)] ) is 1.54

molecule NC[C@@](O)(c1ccc(Cl)cc1)c1ccc(-c2cn[nH]c2)cc1 , thermal shift delta Tm observed: 0.91

Documented thermal shift delta Tm of CC1Oc2cc(cnc2N)-c2c(nn(C)c2C#N)CN(C)C(=O)c2ccc(F)cc21 (stereo not drawn) : 0.86

Sure, the documented thermal shift delta Tm for COc1cc2ncnc(Nc3ccc(F)c(Cl)c3)c2cc1OCCCN1CCOCC1 [Gefitinib (ZD1839)] is 0.99

Cc1cc([C@@H](C)Nc2ccccc2C(=O)O)c2nc(N3CCOCC3)cc(=O)n2c1 has a reported thermal shift delta Tm of 1.04

COc1ccc(-c2ccc3ncc4c(c3c2)n(-c2ccc(N3CCNCC3)c(C(F)(F)F)c2)c(=O)n4C)cn1 yielded thermal shift delta Tm of 0.59

* * *

tested on: LOC_OS01G10900-cb004; assay: thermal shift delta Tm vs DMSO control; higher = stronger stabilization (binding); settings: 12.5 µM; protein concentration 2 µM
Counter-ions that a name gives are not always drawn.
Parameter: thermal shift delta Tm. Scope: all listed entries.
Dear colleague, please return just the value in °C, with no unit written.

Guide cases for thermal shift delta Tm, answers given:
COc1cccc(-c2cc(=O)c3ccccc3o2)c1N	-0.05
COc1cc2ncnc(Nc3ccc(Cl)cc3F)c2cc1OC	0.27
Cn1nccc1Nc1nccc(-c2ccn([C@H](CO)c3ccc(Cl)c(F)c3)c(=O)c2)n1	0.24
C[C@@H](N)c1ccc(C(=O)Nc2ccnc3[nH]ccc23)cc1	0.32

As a next step, examine the compound that follows.
Entry under test: Nc1ncccc1-c1nc2ccc(-c3ccccc3)nc2n1-c1ccc(C2(N)CCC2)cc1 [Miransertib (ARQ 092) HCl] . Its thermal shift delta Tm was 0.6

* * *

test system: LOC_OS01G60330-cb001; assay: thermal shift delta Tm vs DMSO control; higher = stronger stabilization (binding); details: 12.5 µM; protein concentration 2 µM
Measured Property: thermal shift delta Tm (°C)
Give just the number in °C; leave the unit off.

CC(C)Nc1cc(-c2c[nH]c(C(=O)N[C@H](CO)c3cccc(Cl)c3)c2)c(Cl)cn1	1.73
Cc1ccccc1CN1C2=NCCN2C(=O)C2=C1CCN(Cc1ccccc1)C2	0.24
Cn1cc(-c2cnn3c(N)c(Br)c([C@@H]4CCCNC4)nc23)cn1	1.36
Cc1cc(O)c2c(c1)C(=O)c1cccc(O)c1C2=O	0.02

Now take the following compound into account.
Consider Cc1ccc(C(=O)Nc2ccc(Oc3cc4cnn(C)c4cc3-c3cn[nH]c3)c(F)c2)c(=O)n1-c1ccc(F)cc1 . Its measured thermal shift delta Tm is 1.94

* * *

test system: LOC_OS03G04050-cb001; assay: thermal shift delta Tm vs DMSO control; higher = stronger stabilization (binding); conditions: 12.5 µM; protein concentration 2 µM
Where a name gives a salt, the structure may show the parent alone.
Measured Property: thermal shift delta Tm (°C)
Numeric answer only, unit °C assumed.

Worked cases, thermal shift delta Tm given:
CC#CC(=O)N1CC[C@@H](n2c(=O)n(-c3ccc(Oc4ccccc4)cc3)c3c(N)ncnc32)C1 [ONO-4059 (GS-4059) hydrochloride]	0.51
CCn1c(=O)c(-c2ccc(-c3cncs3)cc2Cl)cc2cnc(Nc3ccc(N4CCN(C)CC4)cc3)nc21	0.71
COc1cc(CCc2cc(NC(=O)c3ccc(N4CC(C)NC(C)C4)cc3)n[nH]2)cc(OC)c1 (configuration not stated)	0.27

Looking up CCCS(=O)(=O)Nc1ccc(F)c(C(=O)c2c[nH]c3ncc(-c4ccc(Cl)cc4)cc23)c1F , I found its thermal shift delta Tm recorded as 0.64

Notebook: COc1cc2ncnc(Nc3ccc(O)c(Br)c3)c2cc1OC , thermal shift delta Tm read as 0.44

Entry CN1CC[C@H](c2c(O)cc(O)c3c(=O)cc(-c4ccccc4Cl)oc23)[C@H](O)C1 ; thermal shift delta Tm = 0.2

Short answer for C=CC(=O)Nc1cccc(Sc2nc(Nc3ccc(N4CCN(C)CC4)cc3)ncc2Cl)c1 : thermal shift delta Tm was 0.43

Briefly, thermal shift delta Tm measured for Nc1ccc(-c2ccc3ncc4ccc(=O)n(-c5cccc(C(F)(F)F)c5)c4c3c2)cn1 : 0.2

The compound C[C@@H]1COCCN1c1cc(=O)n2c(n1)N(Cc1cncc(Cl)c1)[C@H](C(F)(F)F)CC2 showed thermal shift delta Tm equal to 0.37

* * *

system: LOC_OS03G27990-cb004; test: thermal shift delta Tm vs DMSO control; higher = stronger stabilization (binding); conditions: 12.5 µM; protein concentration 2 µM
# thermal shift delta Tm per entry
Write it as a number; the unit °C goes unstated.

Oc1cc(O)cc(/C=C/c2ccc(O)c(O)c2)c1 [Piceatannol]	0.48
COc1cc(OC)c(C=C2C(=O)Nc3ccccc32)c(OC)c1	0.05
Cc1ncc(-c2ccnc(Nc3ccc(S(C)(=O)=O)cc3)n2)n1C(C)C	0.85

Form field thermal shift delta Tm, entry O=c1nc(N2CCOCC2)oc2c(-c3cccc4c3sc3ccccc34)cccc12 : -0.35

For record CCN(C)S(=O)(=O)Nc1ccc(F)c(C(=O)c2c[nH]c3ncc(-c4cnc(C5CC5)nc4)cc23)c1F the listed thermal shift delta Tm is 0.47

* * *

test system: LOC_OS05G16824-cb004; experiment: thermal shift delta Tm vs DMSO control; higher = stronger stabilization (binding); conditions: 12.5 µM; protein concentration 2 µM
Measured Property: thermal shift delta Tm
Answers without a unit are incomplete; give the number and then its unit.

# example entries with known answers
CC(=O)Nc1nc(C)c(-c2ccc(Cl)c(S(=O)(=O)NCCO)c2)s1	0.69 °C
CC(C)(O)CNc1ncc(-c2ccnc(Nc3ccnc(Cl)c3)n2)c(CC2CC2)n1	0.09 °C

Consider CN(C)C[C@@H]1CCn2cc(c3ccccc32)C2=C(C(=O)NC2=O)c2cn(c3ccccc23)CCO1 . Its measured thermal shift delta Tm is 2.45 °C

// thermal shift delta Tm lookup, compound = CNC(=O)c1ccccc1Nc1cc(Nc2ccc(N3CCOCC3)cc2OC)ncc1C(F)(F)F , result: 9.96 °C

Short answer for CC(C)CCN1c2nc(Nc3cc(F)c(O)c(F)c3)ncc2N(C)C(=O)C1C (stereo unspecified) : thermal shift delta Tm was 8.92 °C

Note to self: thermal shift delta Tm recorded for CC1(C)C=Cc2c(ccc3c2OC[C@@H](c2ccc(O)cc2O)C3)O1 was 7.49 °C

Lab note: measured thermal shift delta Tm of CN(C)C/C=C/C(=O)Nc1cc2c(Nc3ccc(F)c(Cl)c3)ncnc2cc1O[C@H]1CCOC1 [Afatinib (BIBW2992)] was 0.09 °C

* * *

test system: LOC_OS01G14860-cb001; assay: thermal shift delta Tm vs DMSO control; higher = stronger stabilization (binding); details: 12.5 µM; protein concentration 2 µM
Measured Property: thermal shift delta Tm
Write the quantity with the unit trailing the number.

Would you please look over these solved cases?
O=C1Cc2c([nH]c3ccc(Br)cc23)-c2ccccc2N1 [Kenpaullone]	7.46 °C
CCc1cc(Nc2nccc(-c3c(-c4ccc(OC)c(C(=O)Nc5c(F)cccc5F)c4)nc4ccccn34)n2)c(OC)cc1N1CCC(N2CCN(S(C)(=O)=O)CC2)CC1	0.33 °C
NC(=O)c1cnc(N[C@@H]2CCCC[C@@H]2N)nc1Nc1cccc(-n2nccn2)c1	3.33 °C
Cc1cc(Nc2cc(CN3CCOCC3)c3nc(C)c(Cc4ccc(Cl)cc4F)n3n2)n[nH]1	7.26 °C
Cc1cc(N2CCOCC2)cc2[nH]c(-c3c(NC[C@@H](O)c4cccc(Cl)c4)cc[nH]c3=O)nc12	1.24 °C

Per the record, CCN1CCN(Cc2ccc(Nc3ncc(F)c(-c4cc(F)c5nc(C)n(C(C)C)c5c4)n3)nc2)CC1 has thermal shift delta Tm of 7.4 °C

Lab book: thermal shift delta Tm of CO[C@H]1C[C@@H]2CC[C@@H](C)[C@@](O)(O2)C(=O)C(=O)N2CCCC[C@H]2C(=O)O[C@H]([C@H](C)C[C@@H]2CC[C@@H](O)[C@H](OC)C2)CC(=O)[C@H](C)/C=C(\C)[C@@H](O)[C@@H](OC)C(=O)[C@H](C)C[C@H](C)/C=C/C=C/C=C/1C [Rapamycin (Sirolimus)] noted as 0.33 °C
